We begin with a simple list: items and their reported pIC50.
target.or.test.system: KiSS-1 receptor (Homo sapiens, UniProt Q969F8)
Sequence (Q969F8 whole entry): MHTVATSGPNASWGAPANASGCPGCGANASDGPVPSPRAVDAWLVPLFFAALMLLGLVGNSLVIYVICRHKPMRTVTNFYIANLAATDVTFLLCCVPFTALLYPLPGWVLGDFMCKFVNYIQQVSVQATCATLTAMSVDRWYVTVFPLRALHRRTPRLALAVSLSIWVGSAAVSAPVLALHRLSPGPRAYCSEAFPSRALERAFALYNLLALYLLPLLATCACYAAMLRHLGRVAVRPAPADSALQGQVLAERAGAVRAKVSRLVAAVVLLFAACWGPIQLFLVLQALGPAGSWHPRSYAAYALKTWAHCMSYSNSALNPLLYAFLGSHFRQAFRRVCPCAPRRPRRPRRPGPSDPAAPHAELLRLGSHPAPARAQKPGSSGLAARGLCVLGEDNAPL
protocol: Displacement of [125I]metastin(40-54) from human GPR54 receptor expressed in CHO cells after 60 mins by scintillation counting
Assay type: cell-based
pIC50: −log10 of the molar value.
reported.property: pIC50

smiles.data	assay.value
N#Cc1c(-c2cccc(NC(=O)CCN)c2)cc(-c2ccc(F)cc2O)nc1NC(=O)c1cccs1	8.13
N#Cc1c(-c2cccc(CO)c2)cc(-c2ccccc2O)nc1NC(=O)c1cccs1	5.82
COc1ccc(O)c(-c2cc(-c3cccc(NC(=O)CCN)c3)c(C#N)c(NC(=O)c3cccs3)n2)c1	6.32
N#Cc1c(-c2cccc(NC(=O)CCN)c2)cc(-c2ccccc2O)nc1NC(=O)c1ccccc1	7.29
N#Cc1c(-c2cccc(NC(=O)CN)c2)cc(-c2ccccc2O)nc1NC(=O)c1cccs1	7.29

# credit: ChEMBL document CHEMBL1165928
